Read-out: Urokinase-type plasminogen activator receptor (uPAR), PLAUR (gene 5329)
TEST_DETAILS: BSK_CASM3C_uPAR: BioMAP Diversity Plus: CASM3C Assay for Urokinase-type plasminogen activator receptor (uPAR) Biomarker Activity (AID 2283054);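 also: cell-surface uPAR protein level quantified by ELISA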
PROTOCOL_CONDITIONS: primary human coronary artery smooth muscle cells; actives raise or lower the signal
Active and inactive are the calls of the source. The calls were made as follows: active = hit-call score of the fitted dose curve at least 0.9, where 1 is the maximum; inactive = score below 0.9.
Response enum: active, inactive

molecule=FC(F)(F)C(F)(F)C(F)(F)C(F)(F)C(F)(F)CCI assigned_class=inactive
molecule="CCCCCCC(C)OC(=O)CCCCC(=O)OC(C)CCCCCC (configuration not stated)" assigned_class=inactive
molecule=O=C(O)C(F)(F)C(F)(F)F assigned_class=inactive
molecule=C=CC(F)(F)C(F)(F)C(F)(F)C(F)(F)C(F)(F)C(F)(F)C(F)(F)C(F)(F)F assigned_class=inactive
molecule=FC(F)(F)C(F)(F)C(F)(F)C(F)(F)CCI assigned_class=inactive
molecule=O=C(O)C(F)(F)C(F)(F)C(F)(F)C(F)(F)C(F)(F)C(F)(F)C(F)(F)C(F)(F)C(F)(F)C(F)(F)C(F)(F)C(F)(F)F assigned_class=inactive
molecule=O=C(Cl)C(F)(F)C(F)(F)C(F)(F)C(F)(F)C(F)(F)C(F)(F)C(F)(F)C(F)(F)F assigned_class=inactive
molecule=OCC(F)(F)C(F)(F)C(F)(F)C(F)(F)C(F)(F)C(F)F assigned_class=inactive

# outcome recorded in this test, key = Oc1ccc(Nc2ccccc2)cc1
inactive

# outcome recorded in this test, key = CCc1c(Br)c(Br)c(Br)c(Br)c1Br
inactive

# outcome recorded in this test, key = N=C(N)C(F)(F)C(F)(F)C(F)(F)C(F)(F)C(F)(F)C(F)(F)C(F)(F)F
inactive

# outcome recorded in this test, key = CCCCCCCCC(F)(F)C(F)(F)C(F)(F)C(F)(F)C(F)(F)C(F)(F)F
inactive

# outcome recorded in this test, key = CCO[Si](CCC(F)(F)C(F)(F)C(F)(F)C(F)(F)C(F)(F)C(F)(F)F)(OCC)OCC
inactive

# outcome recorded in this test, key = CO[Si](OC)(c1ccccc1)c1ccccc1
active

# outcome recorded in this test, key = CCCCCCCOC(=O)c1ccccc1C(=O)OCCCCCCC
inactive

# outcome recorded in this test, key = O=C(O)C(F)(F)C(F)(F)C(F)(F)F
inactive
